System: CAKI-1
EXPERIMENTAL DETAILS: NCI tumour cell line growth inhibition, 48 h
Activity calls are given as the source filed them. No stated cut-off is given here; in the data, active = GI50 up to about 1.1 µM and inactive = higher.

# COMPOUND, GI50
records = [
    ("CN1NC(c2ccccc2)=C(C#N)C(=O)CC1c1ccc(F)cc1 (stereo unspecified)", "> 100 µM (inactive)"),
    ("CN(C)Cc1nsc(N(C)C)n1", "> 100 µM (inactive)"),
    ("COC(=O)/C=C1/OC(c2ccc(C)cc2C)=CC1=O", "19.5 µM (inactive)"),
    ("O=C(O)c1ccccn1 [2-PICOLINIC ACID]", "> 100 µM (inactive)"),
    ("CCC1(CC)SCc2nc3ccccc3n21", "35.2 µM (inactive)"),
    ("CC1ON2CCCC2[C@H]1C(=O)N1C2CC3CCC2(CS1(=O)=O)C3(C)C (stereo partly specified)", "> 100 µM (inactive)"),
]

* * *

Test system: SF-539
EXPERIMENTAL DETAILS: NCI tumour cell line growth inhibition, 48 h
Calls of active or inactive are those of the source. No stated cut-off is given here; in the data, active = GI50 up to about 1.1 µM and inactive = higher.
Outcomes: Yes = active, No = inactive

# COMPOUND, DISCRETE LABEL
data = [
    ("CC(=O)Nc1ccc(S(=O)(=O)[N-]C2C(=O)c3ccccc3C(=O)C2[n+]2ccccc2)cc1 (centres undefined)", "No"),
    ("O=C1c2ccccc2C(=O)N1CCCSc1ccccc1", "No"),
    ("C#CCN(Cc1ccc2[nH]c(N)nc(=O)c2c1)c1ccc(C(=O)NC(CCC(=O)O)C(=O)O)cc1 (centres undefined)", "Yes"),
    ("COC(=O)C1C2OC(C)(C)OC2CN1S(=O)(=O)c1ccc(C)cc1 (centres undefined)", "No"),
    ("O=[N+]([O-])c1nccn1CC(O)c1ccccc1 (centres undefined)", "No"),
    ("CC(C)(C)OC(=O)NC(CCCCNC(=O)OCc1ccccc1)C(=O)NCCNc1ccc(NCCNC(=O)C(CCCCNC(=O)OCc2ccccc2)NC(=O)OC(C)(C)C)c2c1C(=O)c1ccccc1C2=O (centres undefined)", "No"),
    ("CCCN(CCc1ccc(-c2ccccc2)cc1)CCc1ccc2nn[nH]c2c1", "No"),
    ("COc1ccc(S(=O)(=O)n2c3c(c4ccccc42)[C@@H]2[C@@H](CCCN2C(=O)C[S+]([O-])c2ccc(C)cc2)[C@H](Cl)C3)cc1 (some centres undefined)", "No"),
    ("C[C@@H]1O[C@@H]2OCC[C@@H]2C2=C1C(=O)c1ccccc1C2=O", "No"),
]

* * *

Test system: DMS-114
EXPERIMENTAL DETAILS: NCI tumour cell line growth inhibition, 48 h
Activity calls are given as the source filed them. No stated cut-off is given here; in the data, active = GI50 up to about 1.1 µM and inactive = higher.
Outcomes: Y (active), N (inactive)

# COMPOUND, TARGET DESC, DISCRETE LABEL
measured = [
    ("COc1cc(/C=C/C(=O)c2sc(Nc3ccccc3)nc2C)ccc1O", "DMS-114", "N"),
    ("C[C@H](N)C(=O)N[C@@H]1[C@H]2C(=C(O)C[C@@H](O)[C@@H]2O)C(=O)O[C@]1(C)C(Cl)Cl", "DMS-114", "Y"),
    ("O=[N+]([O-])c1ccc(C2N3CCCCC3[C@@H]3c4[nH]c5ccccc5c4CCN23)cc1 (stereo partly specified)", "DMS-114", "N"),
    ("COc1c(C(=O)O)oc2c(OC)cccc12", "DMS-114", "N"),
    ("NC1CCC2(O)c3ccccc3C2C1 (stereo unspecified)", "DMS-114", "N"),
    ("COc1cc(C(=O)C/C(CCC(=O)Nc2ccccc2[N+](=O)[O-])=N\\NC(N)=O)ccc1O", "DMS-114", "N"),
    ("COc1ccc2nc3ccccc3c(NCCCN(C)CCCl)c2c1", "DMS-114", "Y"),
    ("COC1(OC)c2ccccc2C2(O)c3ccccc3C(=O)C12 (stereo unspecified)", "DMS-114", "N"),
    ("O=c1n(CC2CO2)c2ccccc2n1CC1CS1 (stereo unspecified)", "DMS-114", "N"),
    ("CC1=CCC[C@@]2(C)C(CC[C@@H]2C(C)/C=C/C(C)C)c2ccc(cc2C(=O)O)C[C@@H](O)CC1 (stereo partly specified)", "DMS-114", "N"),
    ("CCC1CCCCN1CC(C(C)=O)C(c1ccccc1)c1c(O)c2ccccc2oc1=O (stereo unspecified)", "DMS-114", "N"),
    ("N#CC(C#N)=C(N)/C(C#N)=C/c1ccc(O)c(O)c1", "DMS-114", "N"),
    ("N#C/C(=C1\\SC(C(N)=O)=C(N)N1c1ccccc1)c1nc2ccccc2[nH]1", "DMS-114", "N"),
    ("CC1(C)CCc2cc3c(-c4ccccc4)cc(=O)oc3cc2O1", "DMS-114", "N"),
    ("Cc1ccc(S(=O)(=O)N/N=C(\\C(=O)Nc2cccc([N+](=O)[O-])c2)c2nc3ccc([N+](=O)[O-])cc3nc2O)cc1", "DMS-114", "N"),
    ("CC1C=CC(C)C2(O)C(=O)NC(O)C12 (stereo unspecified)", "DMS-114", "N"),
    ("C=C(C)C1CC2=C(O1)C(=O)c1ccccc1C2=O (stereo not drawn) [DEHYDROISO-ALPHA-LAPACHONE]", "DMS-114", "N"),
    ("CCOc1ccc(/N=C\\c2cc(OC)c(OC)c(OC)c2)cc1", "DMS-114", "N"),
    ("CCN(CC)CCCNc1ccc2ncn3c4ccc(O)cc4c(=O)c1c23", "DMS-114", "N"),
    ("COc1c(C=O)c2c(c(OC)c1OC)-c1ccc(OC)c(=O)cc1[C@@H](NC(C)=O)CC2", "DMS-114", "Y"),
    ("Cn1c2ccccc2c2[nH]cc3nc4ccccc4c-3c21", "DMS-114", "N"),
]
